Test system: SNB-19
experimental protocol: NCI tumour cell line growth inhibition, 48 h
Active and inactive are the calls of the source. Cut-off read from the data, not from the text of the source: active = GI50 up to about 1.1 µM and inactive = higher.
readout type: GI50

These recorded examples may help you get a feel for the data.
1. Oc1ccc2ccccc2c1Cc1c(O)ccc2ccccc12 ... 18.4 µM (inactive)
2. COC(=O)/C(C)=C/[N+](=O)[O-] ... 17.1 µM (inactive)
3. CC1OC(CC(=O)O)Cc2c(O)c3c(c(O)c21)C(=O)C=C(C1=CC(=O)c2c(O)c4c(c(O)c2C1=O)CC(CC(=O)O)OC4C)C3=O (centres undefined) ... > 100 µM (inactive)

Let me know recorded GI50 for O=C1C(Cl)C(c2ccc(O)cc2)N1n1cnc2ccccc2c1=O (centres undefined) , thanks.
> 100 µM (inactive)

Let me know recorded GI50 for OCCNCNc1nc(NCNCCO)nc(N(CNCCO)CNCCO)n1 , thanks.
17.1 µM (inactive)

Let me know recorded GI50 for CN(C)CCNc1ccc(CO)c2sc3ccc(O)cc3c(=O)c12 , thanks.
2.46 µM (inactive)

Let me know recorded GI50 for O=C1CC2CC=C[C@H]3c4cc5c(cc4C(=O)N1C23)OCO5 (some centres undefined) , thanks.
> 50 µM (inactive)

Let me know recorded GI50 for NCCC1CN(C(=O)OCc2ccccc2)c2ccccc21 (centres undefined) , thanks.
19.5 µM (inactive)

Let me know recorded GI50 for Oc1ccc(N=C2CCC(=C(c3ccccc3)c3ccc(Nc4ccc(O)cc4)cc3)CC2)cc1 , thanks.
78.5 µM (inactive)

Let me know recorded GI50 for O=C1c2ccccc2C(=O)c2c1oc1cc(O)c(Cl)cc21 , thanks.
8.81 µM (inactive)

Let me know recorded GI50 for COc1ccccc1CNCc1nc2ccccc2[nH]1 , thanks.
> 100 µM (inactive)

Let me know recorded GI50 for O=c1[nH]c(-c2ccc([N+](=O)[O-])cc2)nc2ccc(Cl)cc12 , thanks.
66.2 µM (inactive)

Let me know recorded GI50 for CC1(C)OC2C(CO)OC(N/C(=N/C#N)Oc3ccccc3)C2O1 (centres undefined) , thanks.
> 100 µM (inactive)

Let me know recorded GI50 for CCN(CC)C(=S)SNCCc1ccc(S(N)(=O)=O)cc1 , thanks.
20 µM (inactive)

---

Test system: SF-295
experimental protocol: NCI tumour cell line growth inhibition, 48 h
Activity calls are given as the source filed them. Rule as the data show it: active = GI50 up to about 1.1 µM and inactive = higher.
readout type: GI50

Let me know recorded GI50 for C/C(=N\NS(=O)(=O)c1ccc([N+](=O)[O-])cc1)c1ccc[n+]([O-])n1 , thanks.
1.9 µM (inactive)

Let me know recorded GI50 for CC(=O)N/N=C1\CC(C)(C)C2CCC1C2 (stereo unspecified) , thanks.
> 100 µM (inactive)

Let me know recorded GI50 for O=c1c2ccccc2nc(-c2cccc(Cl)c2)n1NC1OC(CO)C(O)C(O)C1O (stereo unspecified) , thanks.
> 100 µM (inactive)

Let me know recorded GI50 for O=[N+]([O-])c1ccc(C2CC(c3ccc(NCc4nc5ccccc5[nH]4)cc3)=NO2)cc1 (stereo unspecified) , thanks.
21.8 µM (inactive)

Let me know recorded GI50 for Oc1ccc2ccccc2c1Cc1c(O)ccc2ccccc12 , thanks.
16.7 µM (inactive)

Let me know recorded GI50 for C[N+](C)(N)Cc1csc(-c2ccc(Cl)cc2)n1 , thanks.
67.1 µM (inactive)

Source: ChEMBL document CHEMBL1201862
